# measured.on: T1, PARD3B_1, Q8TEW8
# T1 sequence (Q8TEW8 196-299, limits assumed, looked up): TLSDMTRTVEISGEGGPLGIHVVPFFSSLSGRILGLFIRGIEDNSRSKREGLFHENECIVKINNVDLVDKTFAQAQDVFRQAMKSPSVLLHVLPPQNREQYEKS
# measurement.notes: holdup assay
# Design: key: below the threshold = too weak to quantify, mostly under pKd 3.1 to 4
# condition.details: plain residues with an end cap or a label only (N-terminal biotin on a linker: ado-ado)
outcome.measure: pKd

# binder, reading
records = [
    ("MQILSKPEFI [NPSR1, Q6W5P4]", 4.09),
    ("ELKAEDEVQI [DCHS2, Q6V1P9]", 3.89),
]
